The measurements presented in this section are drawn from the supplement of paper PMC9112550.

system: Escherichia coli TOP10; experiment: shrunken log2 fold change of peptide-encoding DNA abundance (4.5 h post-induction vs induction); higher = less antimicrobial activity (less host growth inhibition); settings: time post-induction: 4.5 h; library: site-saturation at positions 5, 18, 19, 20;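 further: peptides expressed intracellularly from a pBAD plasmid library in pooled LB shake-flask culture, induced with 0.3% L-arabinose, DNA abundance read by NGS, three biological replicates, DESeq2 with apeglm shrinkage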
Decision: shrunken log2 fold change >= -0.06 yields y, all other cases yield n.

Some solved cases for reference:
# SEQUENCE_DATA, ASSIGNED_CLASS
rows = [
    ("RRIRYRPPRLPRPRPRPNISPRP", "n"),
    ("RRIRTRPPRLPRPRPRPQHYPRP", "n"),
    ("RRIRGRPPRLPRPRPRPGWRPRP", "y"),
    ("RRIRPRPPRLPRPRPRPAICPRP", "y"),
    ("RRIRDRPPRLPRPRPRPIPLPRP", "y"),
]

Q) Kindly determine if shrunken log2 fold change recorded for RRIRRRPPRLPRPRPRPHWVPRP is above or exactly -0.06.
A) y

Q) Kindly determine if shrunken log2 fold change recorded for RRIRRRPPRLPRPRPRPTKFPRP is above or exactly -0.06.
A) y

Q) Kindly determine if shrunken log2 fold change recorded for RRIRWRPPRLPRPRPRPYRHPRP is above or exactly -0.06.
A) n

Q) Kindly determine if shrunken log2 fold change recorded for RRIRPRPPRLPRPRPRPLMSPRP is above or exactly -0.06.
A) n

Q) Kindly determine if shrunken log2 fold change recorded for RRIRGRPPRLPRPRPRPEGMPRP is above or exactly -0.06.
A) y

Q) Kindly determine if shrunken log2 fold change recorded for RRIRFRPPRLPRPRPRPEAQPRP is above or exactly -0.06.
A) y

Q) Kindly determine if shrunken log2 fold change recorded for RRIRHRPPRLPRPRPRPMSTPRP is above or exactly -0.06.
A) n

Q) Kindly determine if shrunken log2 fold change recorded for RRIRTRPPRLPRPRPRPSGTPRP is above or exactly -0.06.
A) y

Q) Kindly determine if shrunken log2 fold change recorded for RRIRPRPPRLPRPRPRPMDYPRP is above or exactly -0.06.
A) n

Q) Kindly determine if shrunken log2 fold change recorded for RRIRGRPPRLPRPRPRPVMMPRP is above or exactly -0.06.
A) y

Q) Kindly determine if shrunken log2 fold change recorded for RRIRVRPPRLPRPRPRPLEWPRP is above or exactly -0.06.
A) y
